tested on: HOP-92 NSCLC; test: NCI-60 one-dose screen, 48 h; conditions: 10 µM unless noted
The panel holds about 83,000 compounds, 20% with a hit somewhere; the sample as a whole holds those more often. The source made the active and inactive calls. The calls were made as follows: active = growth percent below 10; inactive = the rest.
Choose the fitting class; nothing outside T = active, F = inactive is accepted.

Cc1cc(F)ccc1S(=O)(=O)Nc1cc(-c2c(O)ccc3ccccc23)c(O)c2ccccc12 :: F
COc1ccccc1NC(=O)c1ccc(/C=C/C(=O)c2nccn2C)cc1 :: T
COc1ccc(C2C3=C(COC3=O)N(CCO)c3cc4c(cc32)OCCO4)cc1OC (centres undefined) :: F
C[Se]C(=O)CC1=C2C=C(F)C=CC2/C(=C\c2ccc(S(C)=O)cc2)C1C (centres undefined) :: T
Cn1cc(-c2csc(-c3cn(C(=O)OC(C)(C)C)c4ccccc34)n2)c2ccnc(Cl)c21 :: F
COc1ccc(/C(C)=C(\c2ccc(Cl)cc2)c2ccc(OCCN3CCCC3)cc2)cc1 :: F
CCCCn1sc(=O)n(Cc2ccc(CNC(=O)OCc3ccc4c(Br)cc(Br)c(O)c4n3)cc2)c1=O :: F
Cn1c(O)c(C(/C=C/c2ccccc2)=Nc2ccccc2N)c(=O)n(C)c1=O :: F
Cn1ncc2ccc(-c3nc(-c4ccccc4)[nH]c3-c3n[nH]c(=O)n3C3CC3)cc21 :: F
N#Cc1c(Nc2ccc(F)cc2)n[nH]c1-c1cccs1 :: F

[in] Lab log entry: Cc1ccc2[nH]c(=O)c3c(c2c1)OC(N)=C(C#N)C31C(=O)c2cccc3cccc1c23 (centres undefined) — outcome as called in the assay?
[out] F

[in] Lab log entry: CC(/C=C1\SC(=S)N(CC(=O)NC(Cc2c[nH]c3ccccc23)C(=O)O)C1=O)=C\c1ccccc1 (centres undefined) — outcome as called in the assay?
[out] F

[in] Lab log entry: "CCCCCCCCn1ccc2cc(NC(=O)Cn3cc(CN4CCOCC4)nn3)ccc21" — outcome as called in the assay?
[out] F

[in] Lab log entry: O=C(/C=C/C12c3ccccc3C(c3ccccc31)C1C(=O)NC(=O)C12)c1ccccn1 (centres undefined) — outcome as called in the assay?
[out] T

[in] Lab log entry: "CCOC(=O)c1c(C)c2c(n1C)CSc1cc(S(=O)(=O)c3ccccc3)c(=O)[nH]c1-2" — outcome as called in the assay?
[out] T

[in] Lab log entry: "Cc1cccc(NC(=O)CSc2nc3ccc([N+](=O)[O-])cc3[nH]2)c1" — outcome as called in the assay?
[out] F

[in] Lab log entry: COc1ccc(C2C(C#N)=C(N)Oc3c2sc2c(Br)cccc32)cc1 (centres undefined) — outcome as called in the assay?
[out] F

[in] Lab log entry: "COc1ccc(-c2oc(=O)ccc2-c2cc(OC)c(OC)c(OC)c2)cc1O" — outcome as called in the assay?
[out] F

[in] Lab log entry: "Cc1ccc(-c2csc(NC(=O)N3CCN(c4cc5c(cc4F)c(=O)c(C(=O)O)cn5C4CC4)CC3)n2)cc1" — outcome as called in the assay?
[out] T
